Test system: RXF 393 renal
Test: NCI-60 one-dose screen, 48 h
Conditions: 10 µM unless noted
Compounds without any hit were thinned out: in the full panel of roughly 83,000, 20% have a hit. Calls of active or inactive are those of the source. How the source made its calls: active means growth percent below 10; inactive means the rest.
Give one outcome, nothing more. List: yes = active, no = inactive

A selection of reference data follows.
CC1=CC(=O)CCC12CCOC2=O (centres undefined) : no
CC[C@H](C)[C@H](NC(=O)[C@H]1CCCCN1C)C(=O)N(C)[C@H](C[C@@H](OC(C)=O)c1nc(C(=O)N[C@@H](Cc2ccccc2)C[C@H](C)C(=O)O)cs1)C(C)C : no
CC[C@H](C)[C@H](NC(=O)[C@H]1CCCCN1C)C(=O)N(C)[C@H](C[C@@H](OC(C)=O)c1cccc(C(=O)N[C@@H](Cc2ccccc2)C[C@H](C)C(=O)OC)n1)C(C)C : no
C=CCOC(=O)C(Br)CC (centres undefined) : no

Query block: # lookup: test call for "C=CC[PH+](c1ccccc1)c1ccccc1.C=CC[PH+](c1ccccc1)c1ccccc1.[Pt+2].[S-]c1ncccn1.[S-]c1ncccn1"
Result block: yes

Query block: # lookup: test call for COCC1OC2OC3C(COC)OC(OC4C(COC)OC(OC5C(COC)OC(OC6C(COC)OC(OC7C(COC)OC(OC8C(COC)OC(OC1C(O)C2O)C(O)C8O)C(O)C7O)C(O)C6O)C(O)C5O)C(O)C4O)C(O)C3O (centres undefined) (tested in a mixture with another compound)
Result block: no

Query block: # lookup: test call for "C[C@]12CC[C@@H](OC(=O)N(CCCl)N=O)C[C@@H]1CC[C@@H]1[C@@H]2CC[C@]2(C)C(=O)CC[C@@H]12"
Result block: no

Query block: # lookup: test call for "COC(=O)[C@@H](C)C[C@H](Cc1ccccc1)NC(=O)c1cccc([C@@H](C[C@H](C(C)C)N(C)C(=O)[C@@H](NC(=O)[C@H]2CCCCN2C)C2CC2)OC(C)=O)n1"
Result block: no

Query block: # lookup: test call for "Cc1ccc(S(=O)(=O)n2cc([C@@]3(O)C[C@H](CSC#N)OC3=O)c3ccccc32)cc1"
Result block: no

###

System: HOP-62 NSCLC
Assay: NCI-60 one-dose screen, 48 h (100 = growth as untreated, 0 = no growth, -100 = all killed)
Details: 10 µM unless noted
Protocol: Growth inhibition of the HOP-62 human Non-Small Cell Lung tumor cell line is measured as a screen for anti-cancer activity. Cells are grown in 96 well plates and exposed to the test compound for 48 hours. Compounds are tested at a single concentration, which is 10^-5 M for most compounds. The reported endpoint is percent growth (GI% or GIPRCNT), where numbers from 0 - 100% represent growth inhibition, and numbers from -100% - 0 represent cell death. […]
About 83,000 compounds went through this panel and 20% of them were active in at least one assay; those are over-represented in the sample as a whole.
Documented growth across a set of compounds
# number only, unit % dropped from output

Use these answered entries as a reference point.
O=C(CBr)OCCOC(=O)CBr : 109
CCOC(=O)c1cncn1C(C)c1ccccc1 (configuration not stated) : 97.7
CC[C@H](C)[C@H](NC(=O)[C@H]1CCCCN1C)C(=O)N(C)[C@H](CCc1nc(C(=O)N[C@@H](Cc2ccccc2)C[C@H](C)C(=O)O)cs1)C(C)C : 12.6
CCOC(=O)P(=O)(OCC)OCC : 109
C[C@@H]1C/C=C\C(=O)O[C@H](/C=C/C#C/C=C/C(C)(C)[C@@H](O)c2cccc(O)c2Br)[C@@H](C)/C=C/[C@H](C)C[C@H](OC(N)=O)C1 : 13.1
CC/C(=C(\c1ccc(OCCN2CCOCC2)cc1)c1ccc(OC(=O)Cc2ccccc2)cc1)c1ccc(Cl)cc1 : 103

Query block: Dear colleague, please send me the reported growth for "CC[C@H](C)[C@H](NC(=O)c1cnccn1)C(=O)N(C)[C@H](C[C@@H](OC(C)=O)c1nc(C(=O)N[C@@H](Cc2ccccc2)C[C@H](C)C(=O)OC)cs1)C(C)C" when you can.
Result block: 17.6

Origin of values: PubChem BioAssay (NCI)
